- System: human red blood cells (hRBC)
- assay-notes: Hemolysis of human red blood cells
- Type: cell-based
- condition-notes: red cells of human, 1 h, 100
- Method: Lyophilized peptides were weighed on a Microbalance (Mettler MT5) and dissolved in sterile water to a final concentration of 1 mg/ml. Stock solutions were kept at +4° C., light protected. The peptides were tested for their hemolytic activity against human red blood cells (hRBC). […] A value of 0% and 100% cell lyses, respectively, was determined by incubation of hRBC in the presence of PBS containing 0.001% acetic acid and 2.5% Triton X-100 in H2O, respectively. […]
Where a SMILES comes first, the peptide text is derived from it. [ ]: non-standard residue; d: D form. Cha = N[C@@H](CC1CCCCC1)C(=O)O; Tle = CC(C)(C)[C@H](N)C(=O)O; dDab = NCC[C@@H](N)C(=O)O; Orn = NCCC[C@H](N)C(=O)O; Dab = NCC[C@H](N)C(=O)O; Dap = NC[C@H](N)C(=O)O
Below, each of the compounds is paired with its reported Hemolysis at 100 μg/ml value.

{"compound": "COC[C@@H]1NC(=O)[C@H](Cc2c[nH]c3ccccc23)NC(=O)[C@@H]2CCCN2C(=O)[C@H]2CCCN2C(=O)[C@H](CO)NC(=O)[C@H](C)NC(=O)[C@H](C(C)(C)C)NC(=O)[C@H](CCN)NC(=O)[C@H](Cc2c[nH]c3ccccc23)NC(=O)[C@H](CCN)NC(=O)[C@@H](CCN)NC(=O)[C@H](CCCN)NC(=O)[C@H](CCN)NC(=O)[C@H](CC2CCCCC2)NC1=O [compound 2] (cyclo(WS(Me)[Cha][Dab][Orn][dDab][Dab]W[Dab][Tle]AS[dP]P))", "target-or-system": "human red blood cells (hRBC)", "Hemolysis at 100 μg/ml": "1.7%"}
{"compound": "C[C@@H]1NC(=O)[C@H](C(C)(C)C)NC(=O)[C@H](CCN)NC(=O)[C@H](Cc2c[nH]c3ccccc23)NC(=O)[C@H](CCN)NC(=O)[C@@H](CCN)NC(=O)[C@H](CCCN)NC(=O)[C@H](CCN)NC(=O)[C@H](Cc2c[nH]c3ccccc23)NC(=O)[C@H](CN)NC(=O)[C@H](Cc2c[nH]c3ccccc23)NC(=O)[C@@H]2CCCN2C(=O)[C@H]2CCCN2C(=O)[C@H](CO)NC1=O [compound 79] (cyclo(W[Dap]W[Dab][Orn][dDab][Dab]W[Dab][Tle]AS[dP]P))", "target-or-system": "human red blood cells (hRBC)", "Hemolysis at 100 μg/ml": "1%"}
{"compound": "CC[C@H](C)[C@@H]1NC(=O)[C@@H]2CCCN2C(=O)[C@H]2CCCN2C(=O)[C@H](CO)NC(=O)[C@H](C)NC(=O)[C@H](C(C)(C)C)NC(=O)[C@H](CCN)NC(=O)[C@H](Cc2c[nH]c3ccccc23)NC(=O)[C@H](CCN)NC(=O)[C@@H](CCN)NC(=O)[C@H](CCCN)NC(=O)[C@H](CCN)NC(=O)[C@H](Cc2ccc(O)cc2)NC(=O)[C@H](C)NC1=O [compound 125] (cyclo(IAY[Dab][Orn][dDab][Dab]W[Dab][Tle]AS[dP]P))", "target-or-system": "human red blood cells (hRBC)", "Hemolysis at 100 μg/ml": "0%"}
{"compound": "CC(C)C[C@@H]1NC(=O)[C@@H]2CCCN2C(=O)[C@H]2CCCN2C(=O)[C@H](CO)NC(=O)[C@H](CC(N)=O)NC(=O)[C@H](C(C)(C)C)NC(=O)[C@H](CCN)NC(=O)[C@H](Cc2c[nH]c3ccccc23)NC(=O)[C@H](CCN)NC(=O)[C@@H](CCN)NC(=O)[C@H](CCCN)NC(=O)[C@H](CCN)NC(=O)[C@H](Cc2ccc(O)cc2)NC(=O)[C@H](CC(N)=O)NC1=O [compound 121] (cyclo(LNY[Dab][Orn][dDab][Dab]W[Dab][Tle]NS[dP]P))", "target-or-system": "human red blood cells (hRBC)", "Hemolysis at 100 μg/ml": "0%"}
{"compound": "C[C@@H]1NC(=O)[C@H](C(C)(C)C)NC(=O)[C@H](CCN)NC(=O)[C@H](Cc2c[nH]c3ccccc23)NC(=O)[C@H](CCN)NC(=O)[C@H](CCN)NC(=O)[C@H](CCCN)NC(=O)[C@H](CCN)NC(=O)[C@H](CC2CCCCC2)NC(=O)[C@H](CO)NC(=O)[C@H](Cc2c[nH]c3ccccc23)NC(=O)[C@@H]2CCCN2C(=O)[C@H]2CCCN2C(=O)[C@H](CO)NC1=O [Ex. 1] (cyclo(WS[Cha][Dab][Orn][Dab][Dab]W[Dab][Tle]AS[dP]P))", "target-or-system": "human red blood cells (hRBC)", "Hemolysis at 100 μg/ml": "1%"}

Data origin, for the record: patent US9938322B2
